Biological target: T1, human TROP2 protein (Sino Biological, #10428-H08H) (human, UniProt P09758 27-274)
T1 construct: bought protein; also called human Trop2 protein antigen (His tag); not shown: His tag
T1 sequence (looked up): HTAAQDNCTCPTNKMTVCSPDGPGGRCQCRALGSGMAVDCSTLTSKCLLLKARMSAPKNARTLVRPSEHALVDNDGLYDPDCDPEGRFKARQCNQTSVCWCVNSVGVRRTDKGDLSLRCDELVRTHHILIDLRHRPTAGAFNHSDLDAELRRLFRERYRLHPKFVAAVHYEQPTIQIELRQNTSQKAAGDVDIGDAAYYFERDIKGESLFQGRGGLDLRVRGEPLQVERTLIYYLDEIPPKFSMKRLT
Test: BLI, Octet RED96, AHC sensor
MEASUREMENT_KIND: kon (M⁻¹ s⁻¹)

- BINDER: "PR001162 (antibody, human IgG1, kappa, V domains shown, fully human IgG1/kappa; also called antibody No. (23)) VH: QVQLVESGGGVVQPGTSLRLSCVASGFTFSNDGMHWVRQAPGMGLEWVAIMWFDGGSKYYADSVKGRFTISRDNSKNTLYLQMNNLRAEDTAVYYCARDHPHYLGSGSFDYWGQGTLVTVSS VL: EIVLTQSPATLSLSPGERATLSCRASQSVSSYLAWYQQKPGQAPRLLIYDASNRATGIPARFSGSGSGTDFTLTISSLQAEDVAVYYCQQYYSTPYTFGQGTKLEIKR"
  MEASUREMENT_KIND: "kon"
  OBSERVED_MEASUREMENT: 298000
- BINDER: "PR001132 (antibody, human IgG1, kappa, V domains shown, fully human IgG1/kappa; also called antibody No. (4)) VH: QVELVESGGGVVQPGRSLRLSCGASGFTFSSYNMYWVRQAPGKGLEWVAGIWDDGNNKYYANSVKGRFTISRDNSKNTLYLQMNSLRTEDTALYYCAKDGWGSYGEYFQHWGQGTLVTVSS VL: DIQMTQSPSSLSASVGERVTITCRASQNINSYLSWYQQKPGKAPKLLIYAASSLQNGVPSRFSGSGSGTDFTLTISSLQPEDFATYYCQQSFSTPPITFGQGTRLEIKR"
  MEASUREMENT_KIND: "kon"
  OBSERVED_MEASUREMENT: 121000
- BINDER: "PR001166 (antibody, human IgG1, kappa, V domains shown, fully human IgG1/kappa; also called antibody No. (27)) VH: QVQLQESGPGLVKPSETLSLTCAVSGYSISSGYFWAWIRQPPGKGLEWIGSIYHSGRTHYNPSLKSRVIISLDTSKNQFSLKLRSVTAADSAVYYCAREGYASGSYYWGQGTLVTVSS VL: EIVMTQSPATLSVSPGERATLSCRSSQSVNNYLAWFQQKPGQAPRLLIYDSSTRATGIPARFSGSGSGTEFTLTISSLQSEDFAFYFCQQYENWPLTFGGGTKVEIKR"
  MEASUREMENT_KIND: "kon"
  OBSERVED_MEASUREMENT: 470000
- BINDER: "PR001158 (antibody, human IgG1, kappa, V domains shown, fully human IgG1/kappa; also called antibody No. (20)) VH: QVQLVESGGGVVQPGRSLRLSCVASGFTFSHYGMHWVRQAPGKGLEWVAVIWYDGIKKYYVESVKGRFTISRDNSKNTLNLQMNRLRAEDTAVYYCARDGGFGESNYYGLDVWGQGTTVTVSS VL: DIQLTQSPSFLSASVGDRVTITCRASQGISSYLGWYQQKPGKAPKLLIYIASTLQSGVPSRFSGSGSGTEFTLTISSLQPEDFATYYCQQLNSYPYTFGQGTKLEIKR"
  MEASUREMENT_KIND: "kon"
  OBSERVED_MEASUREMENT: 132000
- BINDER: "PR001155 (antibody, human IgG1, kappa, V domains shown, fully human IgG1/kappa; also called antibody No. (18)) VH: QVQLVQSGGGVVQPGRSLRLSCAASGFTFSHYGMHWVRQAPGKGLEWVAVIWYDGIKKYYVESVKGRFTISRDNSKNTLYLQMNRLRAEDTAVYYCARDGGFGELNYYGLDVWGQGTTVTVSS VL: DIQLTQSPSFLSASVGDRVTITCRASQGISSYLGWYQQKPGKAPKLLIYVASTLQSGVPSRFSGSGSGTEFTLTISSLQPEDFATYYCQQLNSYPYTFGQGTKLEIKR"
  MEASUREMENT_KIND: "kon"
  OBSERVED_MEASUREMENT: 78100
- BINDER: "PR001159 (antibody, human IgG1, kappa, V domains shown, fully human IgG1/kappa; also called antibody No. (21)) VH: QVQLVESGGGVVQPGRSLRLSCEASGFTFSHYGMHWVRQAPGKGLEWVAVIWYDGIKTNYVESVKGRFTISRDNSKNTLNLQMNRLRAEDTAVYYCARDGGFGESNYYGLDVWGQGTTVTVSS VL: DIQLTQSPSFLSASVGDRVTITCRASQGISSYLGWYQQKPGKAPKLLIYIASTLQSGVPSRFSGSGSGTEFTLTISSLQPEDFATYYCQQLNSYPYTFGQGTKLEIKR"
  MEASUREMENT_KIND: "kon"
  OBSERVED_MEASUREMENT: 176000
- BINDER: "PR001165 (antibody, human IgG1, kappa, V domains shown, fully human IgG1/kappa; also called antibody No. (26)) VH: QVQLVESGGGVVQPGRSLRLSCEASGFTFSHYGMHWVRQAPGKGLEWVAVIWYDGIKTYYVESVKGRFTISRDNSKNTLNLQMNRLRAEDTAVYYCARDGGFGESNYYGLDVWGQGTTVTVSS VL: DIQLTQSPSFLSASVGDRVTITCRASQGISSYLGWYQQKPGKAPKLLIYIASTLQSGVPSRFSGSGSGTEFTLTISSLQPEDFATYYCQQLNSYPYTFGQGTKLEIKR"
  MEASUREMENT_KIND: "kon"
  OBSERVED_MEASUREMENT: 164000
- BINDER: "PR001168 (antibody, human IgG1, kappa, V domains shown, fully human IgG1/kappa; also called antibody No. (28)) VH: QVQLVESGGGVVQPGRSLRLSCATSGFIFSSYGMHWVRQAPGKGLDWVAVIWYDGSNKYYADSVKGRFTISRDNSKNTLYLQMNSLRVEDTAVYYCARETSSWYVGYLQHWGQGTLVTVSS VL: EIVMTQSPATLSVSPGERVSLSCRASQSVNGNVAWYQQKPGQAPRLLIYAASTRATGIPARFSGSGSGTESTLTISSLQSEDCAVYYCQQYNNWPSTFGPGTKLEVTR"
  MEASUREMENT_KIND: "kon"
  OBSERVED_MEASUREMENT: 88000
- BINDER: "PR001164 (antibody, human IgG1, kappa, V domains shown, fully human IgG1/kappa; also called antibody No. (25)) VH: QVQLQQSGPGLVKPSQTLSLTCAISGDSVSSTSAVWNWIRQSPSRGLEWLGRTCYRSKWYNDYAVSVKSRITITPDTSKNQFSLRLNPVTPEDTAVYYCARGDFRFDSWGQGTLVTVSS VL: DIQLTQSPSFLSASVGDRVTITCRASQGISSYLAWYQQKPGKAPKLLIYAASTLQSGVPSRFSGSGSGTEFTLTISSLQPEDFATYYCQQVKIYPLTFGGGTKVEIKR"
  MEASUREMENT_KIND: "kon"
  OBSERVED_MEASUREMENT: 109000
- BINDER: "PR001133 (antibody, human IgG1, kappa, V domains shown, fully human IgG1/kappa; also called antibody No. (5)) VH: QVNLVESGGGVVQPGRSLKLSCAASGFTFSSYGMHWVRQAPGKGLEWVALIWSDGTNRYYTESVKGRFTISRDNSKNTLSLQMKSLRAEDTAVYYCAKDGWGTYGEYFQHWGQGTLVTVSS VL: DIQMTQSPSSLSASVGDRVTITCRASQNINSYLHWYQQKPGKAPKLLIYAASSLQSGVPSRFSGSGSGTDFTLTISSLQPEDFAIYYCQQSYSIPPITFGQGTRLEIKR"
  MEASUREMENT_KIND: "kon"
  OBSERVED_MEASUREMENT: 88500
